The measurements presented in this section are drawn from ChEMBL document CHEMBL1201862.

tested on: SF-539; assay: NCI tumour cell line growth inhibition, 48 h
Activity calls are given as the source filed them. Cut-off read from the data, not from the text of the source: active = GI50 up to about 1.1 µM and inactive = higher.
The reader will find reported GI50 values listed item by item below.

# compound, GI50
rows = [
    ("O=C(CC(C(=O)O)N1CCOCC1)c1ccccc1 (stereo unspecified)", "22.6 µM (inactive)"),
    ("CN(C)CCCN1c2ccccc2Sc2cnccc21", "54.6 µM (inactive)"),
    ("Nc1nc(O)c(N)c(NCCOCP(=O)(O)O)n1", "> 100 µM (inactive)"),
    ("COC(=O)c1sc2c(=O)c(C(=O)OC)c(C(=O)OC)sc2c(=O)c1C(=O)OC", "> 100 µM (inactive)"),
    ("Nc1c(-c2ccc(Cl)cc2)[n+]([O-])c2ccccc2[n+]1[O-]", "> 100 µM (inactive)"),
    ("CN(C)c1ccc(C(C#N)NNC(=O)Cc2ccccc2)cc1 (stereo unspecified)", "> 100 µM (inactive)"),
]

###

system: M19-MEL; experiment: NCI tumour cell line growth inhibition, 48 h
The source made the active and inactive calls. Cut-off read from the data, not from the text of the source: active = GI50 up to about 1.1 µM and inactive = higher.
Possible outcomes: class 1 (active), class 0 (inactive)

# compound, target.system, category
records = [
    ("CCOC(=O)c1sc(Nc2cc(Cl)ccc2Cl)nc1C", "M19-MEL", "class 0"),
    ("CCN(CC)CCCNC(=O)C1COc2cc(-c3cc(=O)c4ccccc4o3)ccc2O1 (configuration not stated)", "M19-MEL", "class 0"),
    ("OCCN1CCN(CC/C=C2/c3ccccc3Sc3ccc(Cl)cc32)CC1", "M19-MEL", "class 0"),
    ("CC1(C)C(c2ccccc2)=NN(O)c2ccccc21", "M19-MEL", "class 0"),
    ("C=C(C=O)[C@@H]1C2OC(=O)C(=C)[C@@H]2CC(O)[C@@]1(C)CC (some centres not stated)", "M19-MEL", "class 0"),
    ("CC(=O)OC(CCC1(C)OC1COc1ccc(CCNC(=O)c2ccccc2)cc1)C(C)(C)OC(C)=O (configuration not stated)", "M19-MEL", "class 0"),
    ("CCN(CC)CCC1CC/C(=C\\c2ccc(OC)cc2)C1=O (configuration not stated)", "M19-MEL", "class 0"),
    ("Cn1c(/C=C/CO)c(CO)c2c1C(=O)C=C(N1CC1)C2=O", "M19-MEL", "class 1"),
    ("NC(CCCNc1cccc(O)c1)C(=O)O (configuration not stated)", "M19-MEL", "class 0"),
    ("COC(=O)C(C(=O)OC)C1CCCC(=O)C1 (configuration not stated)", "M19-MEL", "class 0"),
    ("NC(=O)CC(N/C=C1/N=C(c2ccccc2)OC1=O)C(=O)O (configuration not stated)", "M19-MEL", "class 0"),
    ("CN(O)C(=O)c1ccccc1", "M19-MEL", "class 0"),
    ("[N-]=[N+]=Nc1ccccc1Oc1ccccc1", "M19-MEL", "class 0"),
    ("CN(Cc1ccccc1)/C(=N\\C#N)N(Cc1ccccc1)Cc1ccccc1", "M19-MEL", "class 0"),
    ("COc1cc2c[n+](C)c3c4cc(OC)c(OC)cc4c(OCCCCCCCCOc4cc5c6cc(OC)c(OC)cc6c[n+](C)c5c5cc(OC)c(OC)cc45)cc3c2cc1OC", "M19-MEL", "class 0"),
    ("O=C1CCCN(c2ccccc2)N1", "M19-MEL", "class 0"),
    ("O=c1ccn([C@@H]2C[C@H](CO)C[S+]([O-])C2)c(=O)[nH]1 (some centres not stated)", "M19-MEL", "class 0"),
    ("NCCCNCCSP(=O)(O)O", "M19-MEL", "class 0"),
    ("Cc1ccc(C)c(N2C(=O)C(=O)C(c3nc4ccccc4o3)/C(=N\\NC(=O)c3ccccc3O)C2=O)c1 (configuration not stated)", "M19-MEL", "class 0"),
    ("Cc1cccc(C)c1NC(=O)C(=O)C(C(=O)c1ccccc1-c1ccccc1)C1OC(=O)c2ccccc21 (configuration not stated)", "M19-MEL", "class 0"),
    ("Clc1ccc(C[P+](c2ccccc2)(c2ccccc2)c2ccccc2)cc1Cl", "M19-MEL", "class 0"),
    ("CC(=O)OCc1cc(=O)n(C)c2c3c4c(cc12)c(C)cc(=O)n4CO3", "M19-MEL", "class 0"),
]
